Sourced from patent US20260055065A1

# system name: F508del-CFTR (Homo sapiens, UniProt P13569, DEL508-508)
# Construct: F508del-CFTR was endogenously expressed in CFBE41o^− cells; endogenous in cells
# Sequence (P13569 with tags, fused parts or gaps DEL508-508): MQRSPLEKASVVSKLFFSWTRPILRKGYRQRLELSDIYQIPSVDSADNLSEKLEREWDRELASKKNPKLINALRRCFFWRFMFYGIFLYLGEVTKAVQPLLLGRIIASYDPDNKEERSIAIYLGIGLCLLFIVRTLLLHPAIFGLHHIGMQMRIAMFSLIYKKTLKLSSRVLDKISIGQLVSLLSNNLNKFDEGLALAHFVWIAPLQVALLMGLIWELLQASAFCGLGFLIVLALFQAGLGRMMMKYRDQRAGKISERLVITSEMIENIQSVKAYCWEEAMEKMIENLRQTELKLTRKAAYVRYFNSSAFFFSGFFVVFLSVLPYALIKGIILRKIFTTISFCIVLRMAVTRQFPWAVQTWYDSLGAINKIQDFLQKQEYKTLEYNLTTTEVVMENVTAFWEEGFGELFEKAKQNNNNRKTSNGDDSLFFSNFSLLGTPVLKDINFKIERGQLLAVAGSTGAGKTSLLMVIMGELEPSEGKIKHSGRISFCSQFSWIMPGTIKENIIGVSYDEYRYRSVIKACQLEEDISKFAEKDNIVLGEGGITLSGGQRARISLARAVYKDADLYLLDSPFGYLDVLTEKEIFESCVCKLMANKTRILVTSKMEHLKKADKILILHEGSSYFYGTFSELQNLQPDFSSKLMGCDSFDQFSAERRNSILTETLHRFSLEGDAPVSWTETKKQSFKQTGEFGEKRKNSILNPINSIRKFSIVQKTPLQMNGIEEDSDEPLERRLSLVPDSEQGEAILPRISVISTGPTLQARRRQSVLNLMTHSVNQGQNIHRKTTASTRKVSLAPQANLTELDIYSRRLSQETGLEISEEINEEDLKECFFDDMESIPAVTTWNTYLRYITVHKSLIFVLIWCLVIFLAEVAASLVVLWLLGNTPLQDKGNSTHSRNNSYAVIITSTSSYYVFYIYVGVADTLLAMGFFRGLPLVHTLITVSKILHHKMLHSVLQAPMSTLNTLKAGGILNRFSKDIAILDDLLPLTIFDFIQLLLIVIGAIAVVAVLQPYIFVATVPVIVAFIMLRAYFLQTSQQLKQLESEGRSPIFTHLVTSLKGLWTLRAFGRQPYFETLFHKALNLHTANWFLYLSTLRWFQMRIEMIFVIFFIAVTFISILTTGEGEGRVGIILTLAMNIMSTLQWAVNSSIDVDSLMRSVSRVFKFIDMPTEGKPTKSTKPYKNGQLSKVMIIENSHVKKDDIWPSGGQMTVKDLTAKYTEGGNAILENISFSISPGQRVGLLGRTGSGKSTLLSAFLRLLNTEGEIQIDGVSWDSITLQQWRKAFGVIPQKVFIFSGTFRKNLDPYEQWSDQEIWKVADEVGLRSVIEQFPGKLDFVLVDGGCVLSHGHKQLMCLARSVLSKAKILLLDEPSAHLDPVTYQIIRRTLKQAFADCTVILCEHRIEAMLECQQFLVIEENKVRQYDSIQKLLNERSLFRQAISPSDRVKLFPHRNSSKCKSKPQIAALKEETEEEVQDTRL
# method notes: Dose response, potentiation of forskolin-activated F508del-CFTR chloride channel activity in CFBE41o- cells (fluorescence membrane potential assay)
# study conditions: low temperature (27 degrees Celsius) correction, read-out: potency in potentiating cyclic AMP dependent F508del-CFTR chloride channel activity
metric name: EC50 (µM)
Answer format: numeric, µM implied, no suffix.

| compound | readout number |
| --- | --- |
| CC(C)(C)c1cc(C(C)(C)C)c(NC(=O)c2c[nH]c3ccccc3c2=O)cc1O [VX-770, reference compound] | 0.032 |

# input for lookup
// EC50 value for `CC(C)(C)c1ccc(-n2nc(-c3ccc(F)cc3)c(N3CCCCC3)c(N)c2=O)cc1O` : 0.005

---

# system name: deltaF508 CFTR (Homo sapiens, UniProt P13569, DEL508-508)
# Construct: host or cells: CFBE (cystic fibrosis bronchial-derived cell line)
# Sequence (P13569 with tags, fused parts or gaps DEL508-508): as above
# method notes: CFBE potentiator assay (FLIPR membrane potential, temperature-rescued)
# Assay type: cell-based
# study conditions: CFBE cells, 3 micromolar forskolin; bin 1 μM-10 μM; read-out: CFBE potentiator EC50 range
# Protocol: Cell culture: HEK293 cells stably expressing human deltaF508 CFTR were cultured in DMEM/F12 medium containing 10% fetal bovine serum (FBS) and 600 micrograms/mL geneticin. […] Data analysis: CFTR activity was defined as maximum fluorescence signal after addition minus baseline fluorescence. All data were normalized to each plate's positive and negative controls and expressed as percent responses. […]
metric name: EC50

| smiles repr | EC50 |
| --- | --- |
| N#CCCn1nc(-c2ccccc2)c(N2CCCCC2)c(N)c1=O | 1 to 10 µM |

Kindly review the next compound as well.
// EC50 value for `Nc1c(N2CCCCC2)c(-c2ccccc2)nn(CCCO)c1=O` : 1 to 10 µM
